test: Cmax in dog at 2 mg/kg, iv; assay type: ADME, organism-based, Canis lupus familiaris; parameters: dose 2 mg/kg, route intravenous; settings: in vivo
Observed Property: Cmax (ng/mL)
Please respond with the number in ng/mL and leave the unit unwritten.

[Q] I would be grateful if you could share the reported Cmax for `Cc1noc(-c2ccc3c(c2)c2c(n3CCCSc3cc(F)cc(F)c3)CCCC2)n1` .
[A] 3880

====

test: Tmax in dog at 10 mg/kg, po; assay type: ADME, organism-based, Canis lupus familiaris; set-up: dose 10 mg/kg, route oral; conditions: in vivo
Observed Property: Tmax (h)
// note: answer is a bare numeric in h

[Q] Please report the recorded Tmax for `Cc1noc(-c2ccc3c(c2)c2c(n3CCCSc3cc(F)cc(F)c3)CCCC2)n1` .
[A] 2

====

assay: Solubility of the compound; assay type: physicochemical
Observed Property: solubility

[Q] May I ask what solubility has been recorded for `Cc1noc(-c2ccc3c(c2)c2c(n3CCCSc3cc(F)cc(F)c3)CCCC2)n1` ?
[A] > 1000 µg/mL

====

assay: Cmax in rat at 2 mg/kg, iv; format: ADME, organism-based; parameters: dose 2 mg/kg, route intravenous; conditions: in vivo
Observed Property: Cmax
State the value, then name its unit.

[Q] Given the entry `Cc1noc(-c2ccc3c(c2)c2c(n3CCCS(=O)(=O)N(C)C)CCCC2)n1` , report its measured Cmax.
[A] 1240 ng/mL

[Q] Suppose we examine the molecule `Cc1noc(-c2ccc3c(c2)c2c(n3CCCSc3cc(F)cc(F)c3)CCCC2)n1` ; what Cmax value has been reported?
[A] 2990 ng/mL

[Q] Param item = `COC(=O)c1ccc2c(c1)c1c(n2CCCNc2nc(OC)cc(OC)n2)CCCC1` ; retrieve measured Cmax.
[A] 182 ng/mL

[Q] # input molecule: Cc1noc(-c2ccc3c(c2)c2c(n3CC(F)COc3cc(F)cc(F)c3)CCCC2)n1 (configuration not stated) ; wanted: its Cmax
[A] 1710 ng/mL

[Q] If you can, please state the reported Cmax value of `COc1cc(OC)nc(NCCCn2c3c(c4cc(S(C)(=O)=O)ccc42)CCCC3)n1` .
[A] 1080 ng/mL

[Q] Query (molecule): `CCc1cc(CC)nc(OCCCn2c3c(c4cc(-c5nc(C)no5)ccc42)CCCC3)n1` ; field requested: Cmax
[A] 1050 ng/mL

[Q] Which Cmax value is on record for `Cc1noc(-c2ccc3c(c2)c2c(n3CCCOc3cc(F)cc(F)c3)CCCC2)n1` ?
[A] 821 ng/mL

====

experiment: AUCall in rat at 20 mg/kg, po; format: ADME, organism-based; design: dose 20 mg/kg, route oral; conditions: plasma
Observed Property: AUC
The answer consists of two parts: a number and, after it, its unit.

[Q] Request the reported AUC associated with `Cc1noc(-c2ccc3c(c2)c2c(n3CCCSc3cc(F)cc(F)c3)CCCC2)n1`
[A] 4230 ng·h/mL

[Q] So what's the measured AUC for this one? Cc1noc(-c2ccc3c(c2)c2c(n3CC(F)COc3cc(F)cc(F)c3)CCCC2)n1 (configuration not stated)
[A] 3140 ng·h/mL

====

experiment: Apparent volume of distribution in dog at 2 mg/kg, iv; assay type: ADME, organism-based, Canis lupus familiaris; parameters: dose 2 mg/kg, route intravenous; conditions: in vivo, read-out: Vz
Observed Property: Vd (L/kg)
Kindly provide the numeric value in L/kg only, without the unit symbol.

[Q] I would be grateful if you could share the reported Vd for `Cc1noc(-c2ccc3c(c2)c2c(n3CCCSc3cc(F)cc(F)c3)CCCC2)n1` .
[A] 1.8
